System: OVCAR-5
Test: NCI tumour cell line growth inhibition, 48 h
Active and inactive are the calls of the source. Rule as the data show it: active = GI50 up to about 1.1 µM and inactive = higher.
Could you please report measured GI50 for the items listed next?

Quick note, GI50 for `CCc1nnc(CC)n1NCCCC(=O)O` landed at > 100 µM (inactive)

Quick note, GI50 for Cc1ccc([N+](=O)[O-])cc1S(=O)(=O)Nc1ccc(C2=NN(c3ccc([N+](=O)[O-])cc3[N+](=O)[O-])C(c3ccccc3)C2)cc1 (stereo not given) landed at 23.7 µM (inactive)

Quick note, GI50 for CCOc1ccc(NC(=O)C(=O)C2C(=O)Nc3ccccc3[S+]2[O-])cc1 (stereo not given) landed at > 100 µM (inactive)

Quick note, GI50 for `CN1CCN=C1c1nnn(-c2ccc([N+](=O)[O-])cc2)c1-c1ccccc1` landed at > 100 µM (inactive)

Quick note, GI50 for `O=C(CSCC(=O)N/N=C/c1ccccc1)N/N=C\c1ccccc1` landed at > 100 µM (inactive)
